Values were extracted from ChEMBL document CHEMBL4673253.

I'd be grateful if you could share measured inhibition for these entries.
- assayedSystem: Alpha-1A adrenergic receptor (Homo sapiens) (UniProt P35348)
- Sequence (P35348 whole entry): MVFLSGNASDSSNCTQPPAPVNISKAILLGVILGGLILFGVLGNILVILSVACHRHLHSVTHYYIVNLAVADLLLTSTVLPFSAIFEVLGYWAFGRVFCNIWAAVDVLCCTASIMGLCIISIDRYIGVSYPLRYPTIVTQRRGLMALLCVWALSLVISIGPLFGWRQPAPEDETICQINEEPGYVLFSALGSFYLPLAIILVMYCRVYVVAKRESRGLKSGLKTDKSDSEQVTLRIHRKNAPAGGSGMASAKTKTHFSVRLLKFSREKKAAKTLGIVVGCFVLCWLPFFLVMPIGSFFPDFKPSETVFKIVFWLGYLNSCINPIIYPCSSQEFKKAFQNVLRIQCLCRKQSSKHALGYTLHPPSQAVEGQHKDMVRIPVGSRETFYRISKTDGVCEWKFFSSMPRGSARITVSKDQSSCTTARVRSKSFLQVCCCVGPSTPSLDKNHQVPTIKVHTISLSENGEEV
- measurementProtocol: Binding affinity to human alpha1A adrenoreceptor expressed in membranes assessed as inhibition of [3H]-prazosin binding incubated for 90 mins by scintillation counting method
- Design: concentration or dose not given beside the values
- conditionSet: Cell membrane
Answers are plain numbers, in %.

Can you give me inhibition for all of these, one by one?
1. CC[C@H]1OC2(CCN(CCc3ccccc3)CC2)CN(C)C1=O
2. CCN1CC2(CCN(CCc3cccc(F)c3)CC2)O[C@H](C)C1=O
3. CC1OC2(CCN(CCc3ccccc3)CC2)CN(Cc2ccccc2)C1=O (stereo unspecified)

Result:
[13, 42, 67]

Can you give me inhibition for all of these, one by one?
1. CCN1CC2(CCN(CCc3ccc(F)cc3)CC2)O[C@H](C)C1=O
2. CC(C)C1OC2(CCN(CCc3ccccc3)CC2)CN(C)C1=O (stereo unspecified)
3. CN1CC2(CCN(CCc3ccccc3)CC2)OCC1=O
4. CC1OC2(CCN(CCc3ccccc3)CC2)CN(C)C1=O (stereo unspecified)
5. CC1OC2(CCN(CCc3ccccc3)CC2)CN(CCc2ccccc2F)C1=O (stereo unspecified)
6. CCN1CC2(CCN(CCc3ccccc3)CC2)OC(C)C1=O (stereo unspecified)

Result:
21
29
36
16
7
27

Can you give me inhibition for all of these, one by one?
1. CN1CC2(CCN(CCc3ccccc3)CC2)OC(c2ccccc2)C1=O (stereo unspecified)
2. O=C1N(c2cccnc2C(F)(F)F)CC2(CCN(CCc3ccccc3F)CC2)OC12CC2

Result:
1. 26
2. 57
